molecular target: T1, human CCR8 (human, UniProt P51685 1-355); test: FACS, competition with AF647-human CCL1 on CHO-K1-human CCR8 cells
T1 construct: whole, on cells; also called hCCR8
T1 sequence (P51685 whole entry): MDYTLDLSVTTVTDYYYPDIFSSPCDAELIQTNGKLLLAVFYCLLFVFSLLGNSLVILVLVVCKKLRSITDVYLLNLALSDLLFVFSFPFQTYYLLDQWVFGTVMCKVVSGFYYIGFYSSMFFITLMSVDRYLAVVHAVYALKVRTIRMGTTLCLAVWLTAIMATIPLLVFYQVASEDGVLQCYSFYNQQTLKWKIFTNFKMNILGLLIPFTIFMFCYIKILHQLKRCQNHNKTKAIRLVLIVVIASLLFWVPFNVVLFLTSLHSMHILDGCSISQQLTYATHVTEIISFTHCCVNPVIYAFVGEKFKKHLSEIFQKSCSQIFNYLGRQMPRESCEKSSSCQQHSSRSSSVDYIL
OBSERVATION_TYPE: IC50 (nM)
Value expressed in nM; do not type the unit.

Sample records with IC50:
INSERT INTO results (binder, observation_type, units_of_measure, reported) VALUES
  ('234G9C12 (antibody, V domains shown, purified murine hybridoma antibody) VH: DVQLQESGPGLVKPSQSLSLTCSVTGYSITSGYYWNWIRQFPGNKLEWMGYTSYDGSNNYNPSFKNRISITRDISKNQFFLKLNSVTTEDTATYYCARQIGLRRGAMDHWGQGTSVTVSS VL: DIQMTQSSSYLSVSLGGRVTITCKASDHINNWLAWYQQKPGNAPRLLISGSTSLRAGVASRFSGSGSGKDYTLTITSLQTEDVATYYCQQYWGIPFTFGGGTKLEIK', 'IC50', 'nM', 1.34),
  ('262C2G7 (antibody, V domains shown, purified murine hybridoma antibody) VH: DVHLQESGPGLVKPSQSLSLTCSVTGYSITSGYYWNWIRQFPGNKLEWMGYISYDGSNNYNPSLKNRISITRDISKNQFFLKLNSVTTEDTATYYCARQIGLRRGAMDYWGQGTSVTVSS VL: DIQMTQSSSYLSVSLGGRVTITCKASDHINNWLAWYQQKPGNAPRLLISGSTSLKAGVASRFSGSGSGKDYTLTITSLQTEDVATYYCQQYWGIPFTFGGGTKLEIK', 'IC50', 'nM', 1.57),
  ('191E12H8 (antibody, V domains shown, purified murine hybridoma antibody) VH: DVQLQESGPGLVKPSQSLSLTCSVTGYSITSGYYWNWIRQFPGNKLEWMGYISYDGSNNYNPSLKNRISITRDISKNQFFLKLNSVTTEDTATYYCARQIGLRRGAMDYWGQGTSVTVSS VL: DIQMTQSSSYLSVSLGGRVTITCKASDHINTWLAWYQQKPGNAPRLLISGSTSLKAGVASRFSGSGSGKDYTLTITSLQTEDVATYYCQQYWGIPFTFGGGTKLEIK', 'IC50', 'nM', 13.3),
  ('153D4G2 (antibody, V domains shown, purified murine hybridoma antibody) VH: EVQLVESGGGLVQPKGSLKLSCAASGFTFNTYAMNWVRQAPGKGLEWVARIRSKSNFYATYYADSVKDRFTISRDDSQDMLYLQMNILKTEDTAIYYCVRGRDYGSSYAMDYWGQGTSVTVSS VL: DIVMTQAAPSVPVTPGESVSISCRSSKSLLHSNGNTYLYWFLQRPGQSPQLLIYRMSNLASGVPDRFSGSGSGTAFTLRISRVEAEDVGVYYCMQHLEYPLTFGAGTKLELK', 'IC50', 'nM', 0.661);

// next item, IC50 requested
Task item: Which IC50 is listed for 149F2C10 (antibody, V domains shown, purified murine hybridoma antibody) VH: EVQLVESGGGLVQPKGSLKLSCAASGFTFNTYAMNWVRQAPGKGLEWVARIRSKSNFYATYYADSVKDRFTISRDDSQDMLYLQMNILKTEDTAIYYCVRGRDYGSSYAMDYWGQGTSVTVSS VL: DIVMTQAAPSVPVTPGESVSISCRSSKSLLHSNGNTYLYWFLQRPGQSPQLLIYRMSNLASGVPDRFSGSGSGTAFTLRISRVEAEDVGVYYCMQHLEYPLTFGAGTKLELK ?
Reply: 0.917
